Source: BindingDB's records for doi:10.1021/acs.jmedchem.7b01449

experiment: Inhibition of RIPK1 in mouse L929sA cells transfected with human Fas assessed as inhibition in TNF-induced necroptosis pretreated for 24 hrs followed by TNF and zVAD.fmk addition measured after 3 hrs by Hoechst 33342/propidium iodide staining-based assay
Recorded measurements of IC50, one per entry

{"smilesCode": "Cc1cc(Nc2cc(N3CCCCC3)nc(Nc3ccc(NC(=O)C4CCCCC4)cc3)n2)n[nH]1", "IC50": "1940 nM"}
{"smilesCode": "Cc1[nH]nc(Nc2nc(Sc3ccc(NC(=O)C4CC4)cc3)nc(N3CCOCC3)n2)c1C", "IC50": "> 3000 nM"}
{"smilesCode": "Cc1cc(Nc2cc(N3CCCCC3)nc(Nc3ccc(NC(=O)C4CC4)cc3)n2)n[nH]1", "IC50": "680 nM"}
{"smilesCode": "Cc1cc(Nc2nc(Sc3ccc(NC(=O)C4CC4)cc3)nc(N3CCCCC3)n2)n[nH]1", "IC50": "> 3000 nM"}
{"smilesCode": "Cc1[nH]nc(Nc2cc(N3CCOCC3)nc(Nc3ccc(NC(=O)C4CCCCC4)cc3)n2)c1C", "IC50": "> 3000 nM"}
{"smilesCode": "Cc1cc(Nc2cc(N3CCN(C)CC3)nc(Nc3ccc(NC(=O)C4CC4)cc3)n2)n[nH]1", "IC50": "640 nM"}
{"smilesCode": "Cc1cc(Nc2nc(Nc3ccc(NC(=O)C4CC4)cc3)nc(N3CCOCC3)n2)n[nH]1", "IC50": "2640 nM"}
{"smilesCode": "Cc1cc(Nc2nc(Nc3ccc(NC(=O)C4CC4)cc3)nc(N3CCN(C)CC3)n2)n[nH]1", "IC50": "> 3000 nM"}
{"smilesCode": "Cc1[nH]nc(Nc2cc(N3CCN(C)CC3)nc(Nc3ccc(NC(=O)C4CC4)cc3)n2)c1C", "IC50": "> 3000 nM"}
{"smilesCode": "Cc1cc(Nc2nc(Sc3ccc(NC(=O)C4CC4)cc3)nc(N3CCN(C)CC3)n2)n[nH]1", "IC50": "1140 nM"}
{"smilesCode": "Cc1cc(Nc2nc(Sc3ccc(NC(=O)C4CCCCC4)cc3)nc(N3CCCCC3)n2)n[nH]1", "IC50": "> 3000 nM"}
